- MEASUREMENT_DESCRIPTION: Cytotoxicity against human HL60/A cells after 72 hrs by MTT assay
- Type: functional, cell-based
pIC50: −log10 of the molar value.
# pIC50 per record follows
QUANTITY_KIND: pIC50

> print(dat)
                                    compound  quantity.kind  operator  endpoint.result
 1  C=C1CC[C@H]2C(=C)CC[C@H]3/C(=C/c4ccc(Cl)cc4)C(=O)O[C@@H]3[C@@H]12          pIC50         <             4.30
 2  C=C1CC[C@H]2C(=C)CC[C@H]3/C(=C\c4cccc(C(F)(F)F)c4)C(=O)O[C@@H]3[C@@H]12          pIC50         =             4.77
 3  C=C1C(=O)O[C@H]2[C@H]1CCC(C)=C1CC[C@@](C)(O[Si](CC)(CC)CC)[C@@H]12          pIC50         =             5.14
 4  COc1cccc2c1C(=O)c1c(O)c3c(c(O)c1C2=O)C[C@@](O)(C(=O)CO)C[C@@H]3O[C@H]1C[C@H](N)[C@H](O)[C@H](C)O1 [DOXORUBICIN]          pIC50         =             5.11
 5  C=C1CC[C@H]2C(=C)CC[C@H]3/C(=C/c4ccccc4)C(=O)O[C@@H]3[C@@H]12          pIC50         <             4.30
 6  C=C1CC[C@H]2C(=C)CC[C@H]3/C(=C/c4cc(OC)c(OC)c(OC)c4)C(=O)O[C@@H]3[C@@H]12          pIC50         <             4.30
 7  CCc1ccc(/C=C2\C(=O)O[C@H]3[C@H]2CCC(C)=C2CC[C@@](C)(O[Si](CC)(CC)CC)[C@@H]23)cc1          pIC50         =             4.72
 8  C=C1CC[C@H]2C(=C)CC[C@H]3/C(=C/c4ccc(CC)cc4)C(=O)O[C@@H]3[C@@H]12          pIC50         <             4.30
 9  CC1=C2CC[C@@](C)(O)[C@@H]2[C@H]2OC(=O)/C(=C\c3ccc(Cl)cc3)[C@@H]2CC1          pIC50         <             4.30
10  CC[Si](CC)(CC)O[C@]1(C)CCC2=C(C)CC[C@H]3/C(=C/c4ccc(F)cc4)C(=O)O[C@@H]3[C@H]21          pIC50         <             4.30

----------
- MEASUREMENT_DESCRIPTION: Cytotoxicity against human HL60/A cells after 72 hrs by MTT assay
- Format: functional, cell-based
pIC50: −log10 of the molar value.
QUANTITY_KIND: pIC50

> print(dat)
                          structure.notation  endpoint.result
 1  CC[Si](CC)(CC)O[C@]1(C)CCC2=C(C)CC[C@H]3/C(=C\c4ccccc4F)C(=O)O[C@@H]3[C@H]21           < 4.30
 2  CC1=C2CC[C@@](C)(O)[C@@H]2[C@H]2OC(=O)/C(=C/c3ccc(F)cc3)[C@@H]2CC1           < 4.30
 3  CC[Si](CC)(CC)O[C@]1(C)CCC2=C(C)CC[C@H]3/C(=C\c4ccc(Cl)cc4)C(=O)O[C@@H]3[C@H]21           < 4.30
 4  C=C1CC[C@H]2C(=C)CC[C@H]3/C(=C\c4ccccc4F)C(=O)O[C@@H]3[C@@H]12           < 4.30
 5  CC1=C2CC[C@@](C)(O)[C@@H]2[C@H]2OC(=O)/C(=C\c3ccc(F)cc3)[C@@H]2CC1           < 4.30
 6  C=C1CC[C@H]2C(=C)CC[C@H]3/C(=C\c4cc(OC)c(OC)c(OC)c4)C(=O)O[C@@H]3[C@@H]12           < 4.30
 7  CC1=C2CC[C@@](C)(O)[C@@H]2[C@H]2OC(=O)/C(=C/c3ccc(Cl)cc3)[C@@H]2CC1           < 4.30
 8  C=C1CC[C@H]2C(=C)CC[C@H]3/C(=C/c4ccc(F)cc4)C(=O)O[C@@H]3[C@@H]12           < 4.30
 9  CC[Si](CC)(CC)O[C@]1(C)CCC2=C(C)CC[C@H]3/C(=C/c4ccccc4F)C(=O)O[C@@H]3[C@H]21             5.11
10  CC1=C2CC[C@@](C)(O)[C@@H]2[C@H]2OC(=O)/C(=C/c3cccc(F)c3)[C@@H]2CC1             4.49
11  CC1=C2CC[C@@](C)(O)[C@@H]2[C@H]2OC(=O)/C(=C\c3cccc(F)c3)[C@@H]2CC1           < 4.30
12  CCc1ccc(/C=C2\C(=O)O[C@H]3[C@H]2CCC(C)=C2CC[C@@](C)(O)[C@@H]23)cc1           < 4.30
13  C=C1CC[C@H]2C(=C)CC[C@H]3/C(=C/c4ccccc4F)C(=O)O[C@@H]3[C@@H]12           < 4.30
14  C=C1CC[C@H]2C(=C)CC[C@H]3/C(=C\c4ccc(F)cc4)C(=O)O[C@@H]3[C@@H]12           < 4.30
15  C=C1CC[C@H]2C(=C)CC[C@H]3/C(=C\c4ccc(Cl)cc4)C(=O)O[C@@H]3[C@@H]12           < 4.30
